Taken from patent US20130230533A1.

Tested target: T1, Dimeric monkey CD48-mFc (monkey)
T1 construct: Soluble monkey CD48 with a C-terminal Fc fusion [mFc]; the whole entry is the construct
T1 chain: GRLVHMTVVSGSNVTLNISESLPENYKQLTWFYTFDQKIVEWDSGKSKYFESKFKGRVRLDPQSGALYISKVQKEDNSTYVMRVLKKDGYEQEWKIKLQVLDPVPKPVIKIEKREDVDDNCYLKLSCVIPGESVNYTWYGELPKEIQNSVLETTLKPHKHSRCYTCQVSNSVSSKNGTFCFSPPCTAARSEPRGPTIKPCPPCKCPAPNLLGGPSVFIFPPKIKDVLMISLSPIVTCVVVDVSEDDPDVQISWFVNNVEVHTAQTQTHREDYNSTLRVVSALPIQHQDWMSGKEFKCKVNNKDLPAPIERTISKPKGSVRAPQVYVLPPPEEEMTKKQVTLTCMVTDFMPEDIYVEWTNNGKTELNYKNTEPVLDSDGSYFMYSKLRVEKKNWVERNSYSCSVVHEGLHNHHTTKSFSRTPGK
Assay info: SPR (Biacore), antibody captured by anti-Fc, CD48 in solution, 37 C
Measurement name: koff (s⁻¹)
One number for each entry, in s⁻¹.

The following binders have reported results that may help.
Prompt: If you can, please state the reported koff value of H4H1781P (antibody, human IgG4, V domains shown, Human IgG4 Fc (H4H)) VH: QVQLVESGGGVVQPGRSLRLSCAASGFTFSNYGMHWVRQAPGKGLEWVAVIWYDDSNKNYADSVKGRFTISRDNSKNTLYLQMNSLRVEDTAVYYCARDRWTYSHFFEYWGQGTLVTVSS VL: DIQMTQSPSSVSASVGDRVTITCRASQGISSWLAWYQQKPGKAPNLLIYAASSLQSGVPSRFGGSGSGTDFSLTISGLQPEDFATYYCQQANSFPRTFGQGTKVEIK .
Response: 6.61e-05

Prompt: If you can, please state the reported koff value of H4H1763N (antibody, V domains shown, Human IgG4 Fc (H4H)) VH: QIQLVQSGAEMKRPGTSVKVSCKASGYTFTSYGINWVRQAPGQGLEWMGWISAYNGDTNYAQKLQGRVTMTTDTSTTTAYMEVRSLRSDDTAVYYCARFLTGTKDYYYGMDVWGQGTTVTVSS VL: DIQMTQSPSSLSASVGDRVTITCQASQDISNFLNWYQQKPGKAPDLLINDASILETGVPSRFSGSGSGTDFTLTINNLQPEDIATYYCQQYDNLPLTFGGGTKVEIK .
Response: 0.000114

Continuing:
Prompt: If you can, please state the reported koff value of H4H1770P (antibody, human IgG4, V domains shown, Human IgG4 Fc (H4H)) VH: QVQLVQSGAEVKKPGAAVKVSCKASGYTFTAYGISWVRQAPGQGLEWMGWISAYDGDTNNAQKFQGRVTMTTDTSSSTAYMELRSLGSDDTAVYYCARDRYSSSSGYFDYWGQGTLVTVSS VL: DIQMTQSPSSVSASVGDRVTITCRASQDISSWLAWSQQKPGKAPKALIYAASSLQSGVPSRFSGSGSGTDFTLTISSLQPEDFATYYCQQANSFPYTFGQGTKLEIK .
Response: 0.000139
